- Tested on: BT-474
- protocol: relative IC50 (midpoint of fitted logistic curve, plateau may be below 50% inhibition; CellTiter-Glo viability); higher = less potent
- experimental_parameters: 4-OH-tamoxifen in medium 1 µM; 72 h
Where a name gives a salt, the structure may show the parent alone.
quantity_name: relative IC50 (nM)
Enter your answer as a number in nM; do not include the unit.

Guide cases for relative IC50, answers given:
compound	output_unit	relative IC50
CCCCC(=O)OCC(=O)[C@]1(O)Cc2c(O)c3c(c(O)c2[C@@H](O[C@H]2C[C@H](NC(=O)C(F)(F)F)[C@H](O)[C@H](C)O2)C1)C(=O)c1c(OC)cccc1C3=O	nM	3340
C=CCn1c(=O)c2cnc(Nc3ccc(N4CCN(C)CC4)cc3)nc2n1-c1cccc(C(C)(C)O)n1	nM	1040
COc1cccc2cc(-c3nc([C@H]4CC[C@H](C(=O)O)CC4)n4ncnc(N)c34)[nH]c12	nM	697

Entry CCN(CC)CCOc1ccc(C(=C(Cl)c2ccccc2)c2ccccc2)cc1 [Clomifene citrate] , system BT-474: what relative IC50 was measured? 2380

Find the measured relative IC50: item `O=C(CCCCCCC(=O)Nc1ccccc1)NO` , target or system BT-474. 1090

# get_value(readout= relative IC50, system= BT-474) for `CN1CCN(CCOc2cc(OC3CCOCC3)c3c(Nc4c(Cl)ccc5c4OCO5)ncnc3c2)CC1` 1290

API: value(readout= relative IC50, system= BT-474, query= `COc1cccc2c1C(=O)c1c(O)c3c(c(O)c1C2=O)C[C@@](O)(C(C)=O)C[C@@H]3O[C@H]1C[C@H](N)[C@H](O)[C@H](C)O1` ) 375

###

- Tested on: BT-474 Tam2
- protocol: viability inhibition at highest dose (% inhibition); higher = more growth inhibition
- experimental_parameters: 4-OH-tamoxifen in medium 1 µM; 72 h
quantity_name: viability inhibition at highest dose

molecule	tested_system	quantity_name	val
CN(Cc1cnc2nc(N)nc(N)c2n1)c1ccc(C(=O)N[C@@H](CCC(=O)O)C(=O)O)cc1 [Methotrexate] (drug 10000 nM)	BT-474 Tam2	viability inhibition at highest dose	2.17
C[C@H]1C[C@@H]2[C@H]([C@@H](O)C[C@@]3(C)[C@H]2CC[C@]3(O)C(=O)CO)[C@@]2(C)C=CC(=O)C=C12 [Methylprednisolone] (drug 10000 nM)	BT-474 Tam2	viability inhibition at highest dose	-2.3
CO[C@H]1/C=C\C=C(/C)C(=O)NC2=CC(=O)C(NCCN(C)C)=C(C[C@@H](C)C[C@H](OC)[C@H](O)[C@@H](C)/C=C(\C)[C@@H]1OC(N)=O)C2=O [Alvespimycin (17-DMAG)] (drug 1000 nM)	BT-474 Tam2	viability inhibition at highest dose	68.2
CC[C@@]1(O)C(=O)OCc2c1cc1n(c2=O)Cc2cc3c(CN(C)C)c(O)ccc3nc2-1 [Topotecan] (drug 1000 nM)	BT-474 Tam2	viability inhibition at highest dose	0.0411
CCOc1cc2ncc(C#N)c(Nc3ccc(OCc4ccccn4)c(Cl)c3)c2cc1NC(=O)/C=C/CN(C)C [Neratinib] (drug 1000 nM)	BT-474 Tam2	viability inhibition at highest dose	97.1
CCNC(=O)c1noc(-c2cc(C(C)C)c(O)cc2O)c1-c1ccc(CN2CCOCC2)cc1 [NVP-AUY922] (drug 1000 nM)	BT-474 Tam2	viability inhibition at highest dose	65.7

Requested read-out viability inhibition at highest dose, target or system BT-474 Tam2, entry CCC1=C[C@@H]2CN(C1)Cc1c([nH]c3ccccc13)[C@@](C(=O)OC)(c1cc3c(cc1OC)N(C)[C@H]1[C@@](O)(C(=O)OC)[C@H](OC(C)=O)[C@]4(CC)C=CCN5CC[C@]31[C@@H]54)C2 [Vinorelbine (tartrate)] (drug 10000 nM) 93.8

###

- Test system: MCF-7 Tam1
- protocol: drug sensitivity score (DSS) (DSS (dimensionless)); higher = more sensitive; extreme values may be limits of the assay
- experimental_parameters: 4-OH-tamoxifen in medium 1 µM; 72 h
Counter-ions that a name gives are not always drawn.
quantity_name: drug sensitivity score
// return just the number, without any unit appended

Worked examples, 2 compounds total:
compound	tested_system	quantity_name	val
CC[C@]1(O)C[C@H]2CN(CCc3c([nH]c4ccccc34)[C@@](C(=O)OC)(c3cc4c(cc3OC)N(C=O)[C@H]3[C@@](O)(C(=O)OC)[C@H](OC(C)=O)[C@]5(CC)C=CCN6CC[C@]43[C@@H]65)C2)C1	MCF-7 Tam1	drug sensitivity score	0.209
CN(C)/N=N/c1[nH]cnc1C(N)=O	MCF-7 Tam1	drug sensitivity score	0

Enter reported drug sensitivity score observed with MCF-7 Tam1 for `Oc1ccc2c(c1)CC[C@H](c1ccccc1)[C@@H]2c1ccc(OCCN2CCCC2)cc1` 0

Item `C[C@@H]1C[C@H]2[C@@H]3CCC4=CC(=O)C=C[C@]4(C)[C@@]3(F)[C@@H](O)C[C@]2(C)[C@@]1(O)C(=O)CO` with MCF-7 Tam1 - drug sensitivity score? 0

Record `O=C(O)CC[C@H]1CC[C@@](c2cc(F)ccc2F)(S(=O)(=O)c2ccc(Cl)cc2)CC1` : what is its drug sensitivity score with MCF-7 Tam1? 0

GET /values?readout=drug sensitivity score&system=MCF-7 Tam1&item= `O=P(O)(O)C(O)(Cn1ccnc1)P(=O)(O)O` 0

// lookup drug sensitivity score | system=MCF-7 Tam1 | key= `CNC(=O)c1cc(Oc2ccc(NC(=O)Nc3ccc(Cl)c(C(F)(F)F)c3)c(F)c2)ccn1` 0

Can you look up drug sensitivity score on MCF-7 Tam1 for `CN1CCC(COc2cnc(-c3cccc(Cn4nc(-c5cccc(C#N)c5)ccc4=O)c3)nc2)CC1` ? 0

Value wanted: drug sensitivity score (MCF-7 Tam1) of entry Cc1ccc([N+](=O)[O-])cc1S(=O)(=O)N(C)/N=C/c1cnc2ccc(Br)cn12 [PIK-75 (HCl)] 22.6

Recorded drug sensitivity score for `COC(=O)C[C@](O)(CCCC(C)(C)O)C(=O)O[C@@H]1C(OC)=C[C@]23CCCN2CCc2cc4c(cc2[C@H]13)OCO4` with MCF-7 Tam1, please? 16.2

Any idea what drug sensitivity score came out for `O=C(/C=C/c1cccc(S(=O)(=O)Nc2ccccc2)c1)NO` on MCF-7 Tam1? 2.18

Hi! What's the reported drug sensitivity score for `O=C(CCCCCCC(=O)Nc1ccc([C@H]2O[C@@H](CSc3nc(-c4ccccc4)c(-c4ccccc4)o3)C[C@@H](c3ccc(CO)cc3)O2)cc1)NO` on MCF-7 Tam1? 0.69

State its drug sensitivity score on MCF-7 Tam1: `CC(=O)Nc1ccc(C(=O)Nc2ccccc2N)cc1` 0

Give drug sensitivity score (MCF-7 Tam1) of the following compound: `O=C(O)C(=O)O.[NH-][C@@H]1CCCC[C@H]1[NH-].[Pt+2]` 0

###

- System: ZR-75-1 Tam1
- protocol: drug sensitivity score (DSS) (DSS (dimensionless)); higher = more sensitive; extreme values may be limits of the assay
- experimental_parameters: 4-OH-tamoxifen in medium 1 µM; 72 h
quantity_name: drug sensitivity score
Format: numeric value only, no unit, no commentary.

>>> print(df.to_string())
                           molecular_string  tested_system           quantity_name   val
0  COc1cc2c(N3CCN(C(=O)Nc4ccc(OC(C)C)cc4)CC3)ncnc2cc1OCCCN1CCCCC1   ZR-75-1 Tam1  drug sensitivity score     0
1  COc1cccc2c1C(=O)c1c(O)c3c(c(O)c1C2=O)C[C@@](O)(C(=O)CO)C[C@@H]3O[C@H]1C[C@H](N)[C@H](O)[C@H](C)O1   ZR-75-1 Tam1  drug sensitivity score  4.65

Attention now shifts to the item below.
Value lookup for drug sensitivity score; key = `C[C@]1(O)C[C@@H](c2nc(-c3ccc4ccc(-c5ccccc5)nc4c3)c3c(N)nccn32)C1` 0.0832

###

This section presents compounds with their documented relative IC50 values.
- Test system: BT-474
- protocol: relative IC50 (midpoint of fitted logistic curve, plateau may be below 50% inhibition; CellTiter-Glo viability); higher = less potent
- experimental_parameters: 4-OH-tamoxifen in medium 0 µM; 72 h

These solved cases illustrate the format of a correct answer.
>>> df
                                   compound  quantity_name         val
0  Cc1c(CN2CCN(C(=O)[C@H](C)O)CC2)sc2c(N3CCOCC3)nc(-c3cnc(N)nc3)nc12  relative IC50      137 nM
1  CCc1c(C(=O)C(N)=O)c2c(OCC(=O)O)cccc2n1Cc1ccccc1  relative IC50  > 10000 nM
2  CC1(C)NC(=O)N(c2ccc([N+](=O)[O-])c(C(F)(F)F)c2)C1=O [Nilutamide]  relative IC50  > 10000 nM
3  CC(C)C[C@H](NC(=O)[C@H](CCc1ccccc1)NC(=O)CN1CCOCC1)C(=O)N[C@@H](Cc1ccccc1)C(=O)N[C@@H](CC(C)C)C(=O)[C@@]1(C)CO1  relative IC50     25.6 nM
4            CCCCCCCCc1ccc(CCC(N)(CO)CO)cc1  relative IC50     3770 nM
5  Cc1ccc(C(=O)N(CCCN)[C@@H](c2oc3cc(Cl)ccc3c(=O)c2Cc2ccccc2)C(C)C)cc1  relative IC50    > 100 nM
6  C=C1C[C@@H]2[C@H](CC[C@]3(C)C(=O)CC[C@@H]23)[C@@]2(C)C=CC(=O)C=C12  relative IC50  > 10000 nM

Attention now turns to another entry.
I am curious: what relative IC50 value has been reported for `Cc1cc2c(F)c(Oc3ncnn4cc(OC[C@@H](C)O)c(C)c34)ccc2[nH]1` ? > 1000 nM
